Molecular target: human glucagon receptor (human, UniProt P47871 26-477)
Assay: cell-based or functional assay
List of cAMP EC50 (1.0% HSA) values.
VALUE KIND: cAMP EC50 (1.0% HSA)

* YXEGTXTSDXSIXLDXKAQXEFIXXLIXGGKSSGAPPPS (Aib2, αMeF(2F)6, 4Pal10, αMeL13, Orn16, Aib20, D-Glu24, αMeY25, Orn28; acylated K17, K31 (groups as in name); C-terminal amide) | > 9.95 µM
* YXEGTXTSDVSIXLDXKAQXEXIXXLIEGGKSSGAPPPS (Aib2, αMeF(2F)6, αMeL13, Orn16, Aib20, αMeF22, D-Glu24, αMeY25; acylated K17, K31 (groups as in name); C-terminal amide) | > 9.95 µM
* YXEGTXTSDXSIXLDXKAQXKFIXXLIEGGPSSGAPPPS (Aib2, αMeF(2F)6, 4Pal10, αMeL13, Orn16, Aib20, D-Glu24, αMeY25; acylated K17, K21 (groups as in name); C-terminal amide) | > 9.95 µM

These data points were gathered from patent US20230265151A1.
